System: SK-MEL-28
Experiment: NCI tumour cell line growth inhibition, 48 h
Calls of active or inactive are those of the source. No stated cut-off is given here; in the data, active = GI50 up to about 1.1 µM and inactive = higher.
Outcome codes: 1.0 (active), 0.0 (inactive)

INSERT INTO assay_data (compound, label_value) VALUES
  ('CCOC(=O)c1c(SC(=O)/C=C/c2ccccc2)n(-c2ccccc2)c(=S)n(-c2ccccc2)c1=O', 0.0),
  ('COc1cc2c(c(OC)c1OC)-c1c(cc3c(c1OC)OCO3)CC(C)C(C)(O)C2OC(=O)c1ccccc1 (stereo not given)', 0.0),
  ('COc1ccc(N2C(=O)C3c4[nH]c5ccc(OCc6ccccc6)cc5c4C4CCC(c5ccccc5)CC4C3C2=O)cc1 (stereo not given)', 0.0),
  ('C=CCC12CCC(=O)C=C1CCC1(C2)OCCO1 (stereo not given)', 0.0),
  ('O=C(CN(Cc1ccccc1)Cc1ccccc1)N1CCc2c([nH]c3ccccc23)C1c1cccnc1 (stereo not given)', 0.0),
  ('c1ccc(C(=NNc2nc3ccccc3[nH]2)c2ccccn2)nc1', 1.0),
  ('O=C(O)Cn1ccc(=O)c2c([N+](=O)[O-])cccc21', 0.0),
  ('CS(=O)(=O)C(=Cc1ccccc1Cl)S(C)(=O)=O', 0.0),
  ('CSc1cc(Cl)c(C)cc1S(=O)(=O)NC(=O)NNc1ccc(Cl)cc1', 0.0),
  ('O=C(Nc1nc(C23CC4CC(CC(C4)C2)C3)cs1)c1cc2cc(Br)cc(Br)c2oc1=O', 0.0);
